- Test name: Selectivity ratio of Ki for human CB2 receptor to Ki for rat CB1 receptor
Quick list: Ratio Ki per entry.
# output: bare number, no unit

// known answers, use as guide
* CC1(C)Oc2cc(C34CC5CC(CC(C5)C3)C4)cc(O)c2[C@@H]2C[C@@H](CO)CC[C@H]21 | 4
* CC(C)(C)C(=O)OCC1=CC[C@@H]2[C@@H](C1)c1c(O)cc(C34CC5CC(CC(C5)C3)C4)cc1OC2(C)C | 3
* CC1(C)Oc2cc(C34CC5CC(CC(C5)C3)C4)cc(O)c2[C@@H]2C[C@H](CC=O)CC[C@H]21 | 0.8

Task: Quick one: Ratio Ki for COc1ccc2c(c1)-c1c(O)cc(C34CC5CC(CC(C5)C3)C4)cc1OC2(C)C ?
Output: 0.7

----------
Measured pKi, listed per entry for reference.
- Assayed target: Cannabinoid receptor 2 (Mus musculus)
// field semantics: pKi = negative decimal log of concentration (mol/L)

* CC1(C)Oc2cc(C34CC5CC(CC(C5)C3)C4)cc(O)c2[C@@H]2CC(=O)CC[C@H]21 | 6.60

Task: What measured pKi is associated with CC1(C)Oc2cc(C34CC5CC(CC(C5)C3)C4)cc(O)c2[C@@H]2CC(CO)=CC[C@H]21 on Cannabinoid receptor 2 (Mus musculus)?
Output: 7.97

Task: Under Cannabinoid receptor 2 (Mus musculus): pKi value of CC1(C)Oc2cc(C34CC5CC(CC(C5)C3)C4)cc(O)c2-c2cc(O)ccc21 ?
Output: 6.60

Task: Hi! What's the reported pKi for CC1(C)Oc2cc(C34CC5CC(CC(C5)C3)C4)cc(O)c2[C@@H]2C[C@H](CO)CC[C@H]21 on Cannabinoid receptor 2 (Mus musculus)?
Output: 7.92

----------
- Assayed target: Cannabinoid receptor 2 (Mus musculus, UniProt P47936)
- Sequence (P47936 whole entry): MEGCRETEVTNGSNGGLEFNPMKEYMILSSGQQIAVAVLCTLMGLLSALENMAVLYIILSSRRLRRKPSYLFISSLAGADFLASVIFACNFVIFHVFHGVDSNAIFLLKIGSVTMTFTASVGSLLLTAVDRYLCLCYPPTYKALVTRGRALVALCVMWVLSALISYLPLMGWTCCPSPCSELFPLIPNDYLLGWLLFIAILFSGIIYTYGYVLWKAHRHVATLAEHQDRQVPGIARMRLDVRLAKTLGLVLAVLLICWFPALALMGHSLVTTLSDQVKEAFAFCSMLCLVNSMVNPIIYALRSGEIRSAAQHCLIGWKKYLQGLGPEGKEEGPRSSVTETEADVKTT
Please assign F whenever Ki is at or above 40 nM, and T whenever it is below.

- CC1(C)Oc2cc(C34CC5CC(CC(C5)C3)C4)cc(O)c2[C@@H]2C[C@@H](CO)CC[C@H]21: F
- CC1(C)Oc2cc(C34CC5CC(CC(C5)C3)C4)cc(O)c2[C@@H]2C[C@@H](CC=O)CC[C@H]21: T
- Cc1ccc2c(c1)-c1c(O)cc(C34CC5CC(CC(C5)C3)C4)cc1OC2(C)C: F
- CO/C=C\[C@@H]1CC[C@@H]2[C@@H](C1)c1c(O)cc(C34CC5CC(CC(C5)C3)C4)cc1OC2(C)C: F
- CC1(C)Oc2cc(C34CC5CC(CC(C5)C3)C4)cc(O)c2-c2cc(CO)ccc21: T

Task: Could you please tell me whether Ki recorded for CC1(C)Oc2cc(C34CC5CC(CC(C5)C3)C4)cc(O)c2[C@@H]2C[C@H](C=O)CC[C@H]21 is less than 40 nM?
Output: T

Task: Dear colleague, could you confirm whether Ki of CC1(C)Oc2cc(C34CC5CC(CC(C5)C3)C4)cc(O)c2[C@@H]2C[C@H](CC=O)CC[C@H]21 falls below 40 nM? Thanks.
Output: T

----------
- Test name: Selectivity ratio of Ki for mouse CB2 receptor to Ki for rat CB1 receptor
Entries annotated with measured Ratio Ki

Examples from the recorded data:
- COc1ccc2c(c1)-c1c(O)cc(C34CC5CC(CC(C5)C3)C4)cc1OC2(C)C: 1.9
- CC1(C)Oc2cc(C34CC5CC(CC(C5)C3)C4)cc(O)c2[C@@H]2C[C@@H](CO)CC[C@H]21: 2.2
- CC(C)(C)C(=O)OCC1=CC[C@@H]2[C@@H](C1)c1c(O)cc(C34CC5CC(CC(C5)C3)C4)cc1OC2(C)C: 7.6
- CC1(C)Oc2cc(C34CC5CC(CC(C5)C3)C4)cc(O)c2[C@@H]2CC(CO)=CC[C@H]21: 1.5

Proceed to the following item.
Task: // Ratio Ki lookup, key: Cc1ccc2c(c1)-c1c(O)cc(C34CC5CC(CC(C5)C3)C4)cc1OC2(C)C
Output: 0.7

Reference for the values: ChEMBL document CHEMBL2346593
